Just for reference, patent US20220378931A1 is where these values come from.

Each entry below carries its reported koff.
Target Or Test System: T1, rat serum albumin (rat, UniProt P02770 25-608)
T1 construct: bought protein, amine-coupled to a CM5 chip; also called Rat SA; RSA
Assay Remarks: SPR (Biacore 8K), albumin immobilised, 25 C, 1:1 kinetics
Give just the number in s⁻¹; leave the unit off.

Answered cases to consult:
- Binder: "INS Analog 25 (other, single-chain insulin B-L2-A-L1-VHH fusion; also called Ex. 25) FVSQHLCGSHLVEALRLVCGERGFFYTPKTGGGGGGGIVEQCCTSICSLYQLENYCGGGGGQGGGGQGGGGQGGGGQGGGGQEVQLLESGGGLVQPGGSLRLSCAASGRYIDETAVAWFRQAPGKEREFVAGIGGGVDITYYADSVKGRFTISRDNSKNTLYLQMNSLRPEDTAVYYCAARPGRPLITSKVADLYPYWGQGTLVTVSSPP"
  koff, s⁻¹: 0.0066
- Binder: "INS Analog 27 (other, single-chain insulin B-L2-A-L1-VHH fusion; also called Ex. 27) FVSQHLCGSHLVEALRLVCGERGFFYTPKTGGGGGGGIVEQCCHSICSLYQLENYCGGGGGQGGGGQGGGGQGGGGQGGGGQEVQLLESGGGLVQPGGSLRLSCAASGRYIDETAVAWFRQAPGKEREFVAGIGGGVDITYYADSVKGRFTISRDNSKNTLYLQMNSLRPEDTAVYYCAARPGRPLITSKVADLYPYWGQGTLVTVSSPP"
  koff, s⁻¹: 0.0061

Now for a further binder.
koff for INS Analog 29 (other, single-chain insulin B-L2-A-L1-VHH fusion; also called Ex. 29) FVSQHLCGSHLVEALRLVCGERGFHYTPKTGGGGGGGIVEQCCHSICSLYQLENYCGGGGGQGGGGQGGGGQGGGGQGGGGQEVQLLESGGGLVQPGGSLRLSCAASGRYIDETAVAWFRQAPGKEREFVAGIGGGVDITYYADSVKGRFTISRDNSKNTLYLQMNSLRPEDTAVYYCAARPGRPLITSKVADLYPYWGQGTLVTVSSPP ?
0.0065
